# System: adult S. mansoni
# run-description: Phenotypic screen of adult S. mansoni worms, severity scores and descriptors
# Type: cell-based, Schistosoma mansoni
# conditions-used: adult schistosomes, 10 μM
measurement-kind: bioactivity against adult S. mansoni

INSERT INTO results (molecule, observed_result) VALUES
  ('CN1CCN(c2ncc(-c3ccc4c(Nc5cnccn5)ccnc4c3)cn2)CC1 [compound 3]', 'no bioactivity'),
  ('O=C(O)C1CCCN1c1ncc(-c2ccc3c(Nc4cnccn4)ccnc3c2)cn1 (stereo not drawn) [3c]', 'no bioactivity');

---

# run-description: Human plasma protein binding (equilibrium dialysis)
# Format: in vitro ADME
# conditions-used: pH 7.4, 37 °C, read-out: human PPB (plasma protein binding) (converted)
measurement-kind: fraction unbound at 10 µM

INSERT INTO measurements (smiles_code, observed_result) VALUES
  ('COc1ccc(NC(=O)c2ccc(-c3cnc(N4CCN(C)CC4)nc3)cc2O)cc1Cl', '< 0.01'),
  ('Cc1ccc2[nH]c3c4ccc(-c5cnc(N6CCCN(C)CC6)nc5)cc4ncc3c2c1', '< 0.01'),
  ('c1cnc(Nc2ccnc3cc(-c4cnc(N5CCCNCC5)nc4)ccc23)cn1', 0.37),
  ('CN1CCCN(S(=O)(=O)c2ccc(-c3ccc4c(Nc5ccc(Cl)cn5)ccnc4c3)cc2)CC1', '< 0.01'),
  ('COc1ccc(NC(=O)c2ccc(-c3cccc(N4CCOCC4)c3)cc2O)cc1Cl', '< 0.01'),
  ('CN1CCCN(c2ncc(-c3ccc4c(Nc5ccncn5)ccnc4c3)cn2)CC1', 0.34),
  ('COc1ccc(Nc2ccnc3cc(-c4ccc(S(=O)(=O)N5CCCN(C)CC5)cc4)ccc23)cc1Cl', 0.01),
  ('COc1ccc(NC(=O)c2ccc(-c3ccc(S(=O)(=O)N4CCN(C)CC4)cc3)cc2O)cc1Cl', '< 0.01'),
  ('COc1ccc(NC(=O)c2ccc(-c3cccc(N4CCOCC4)c3)cc2N)cc1Cl', '< 0.01');

---

# run-description: Human liver microsomal Clint
# Assay type: in vitro ADME
# conditions-used: human liver microsomes, intrinsic clearance
measurement-kind: HLM Clint (μL/min/mg protein)

INSERT INTO measurements (molecule, value_comparator, observed_result) VALUES
  ('O=S(=O)(c1ccc(-c2ccc3nccc(NCC4CCOCC4)c3c2)cc1)N1CCOCC1 [S3g]', '=', 70),
  ('O=S(=O)(c1ccc(-c2ccc3nccc(NCCN4CCCC4)c3c2)cc1)N1CCOCC1 [S3e]', '=', 28),
  ('O=S(=O)(c1ccc(-c2ccc3nccc(NCCC4CCOCC4)c3c2)cc1)N1CCOCC1 [S3h]', '=', 110),
  ('CN1CCCN(c2ncc(-c3ccc4nccc(Nc5ccncn5)c4c3)cn2)CC1 [S3j]', '=', 87),
  ('CN1CCC(Nc2ccnc3ccc(-c4ccc(S(=O)(=O)N5CCOCC5)cc4)cc23)CC1 [S3c]', '=', 23),
  ('CN(C)CCN(C)c1ncc(-c2ccc3c(Nc4cnccn4)ccnc3c2)cn1 [S2c]', '=', 45),
  ('C[S+]([O-])CCNc1ncc(-c2ccc3c(Nc4cnccn4)ccnc3c2)cn1 (centres unmarked) [S2b]', '=', 6),
  ('c1cnc(Nc2ccnc3cc(-c4cnc(N5CCOCC5)nc4)ccc23)cn1 [S2d]', '>', 300),
  ('O=S(=O)(c1ccc(-c2ccc3nccc(N[C@@H]4CCCC[C@H]4O)c3c2)cc1)N1CCOCC1 (relative stereo) [S3d]', '=', 43),
  ('CN1CCCN(c2ncc(-c3ccc4nccc(Nc5cnccn5)c4c3)cn2)CC1 [S3i]', '=', 48),
  ('CS(=O)(=O)N1CCN(c2ncc(-c3ccc4c(Nc5cnccn5)ccnc4c3)cn2)CC1 [S2a]', '=', 44),
  ('O=S(=O)(c1ccc(-c2ccc3nccc(NC4CCOCC4)c3c2)cc1)N1CCOCC1 [S3f]', '=', 59),
  ('O=S(=O)(c1ccc(-c2ccc3nccc(Nc4ccncn4)c3c2)cc1)N1CCOCC1 [S3a]', '=', 210),
  ('Fc1cccc(COc2ccc(Nc3ncnc4ccc(-c5cccc(N6CCOCC6)c5)cc34)cc2Cl)c1 [compound 2]', '=', 63);

---

# System: adult S. mansoni
# run-description: Phenotypic screen of adult S. mansoni worms, severity scores and descriptors
# Type: cell-based, Schistosoma mansoni
# conditions-used: adult S. mansoni, 10 μM, 24 h; scale 0 (no activity) to 4 (maximal activity)
measurement-kind: Severity Scores (10 μM) 24 h

INSERT INTO results (smiles_code, observed_result) VALUES
  ('Cc1c(-c2cnc(N3CCN(C)CC3)nc2)ccc2c(Nc3cnccn3)ccnc12', 1),
  ('CCCN1CCCN(c2ncc(-c3cc4nccc(Nc5cnccn5)c4cc3C)cn2)CC1', 3),
  ('O=S(=O)(c1ccc(-c2ccc3nccc(NCCC4CCOCC4)c3c2)cc1)N1CCOCC1', 0),
  ('CCCN1CCCN(c2ncc(-c3ccc4c(Nc5cnccn5)ccnc4c3C)cn2)CC1', 4),
  ('COc1ccc(Nc2ccnc3cc(-c4ccc(S(=O)(=O)N5CCCN(C)CC5)cc4)ccc23)cc1Cl', 0);

---

# run-description: Aqueous pH 7.4 solubility
# Format: physicochemical
# conditions-used: phosphate buffer pH 7.4, 25 °C, 20-24 h; read-out: aq sol (aqueous solubility)
# if value of solubility reaches 100 µM, tag 1; if it stays below, tag -1

INSERT INTO assay_data (molecule, class_label) VALUES
  ('CS(=O)(=O)N1CCN(c2ncc(-c3ccc4c(Nc5cnccn5)ccnc4c3)cn2)CC1 [S2a]', -1),
  ('CN1CCCN(c2ncc(-c3ccc4nccc(Nc5cnccn5)c4c3)cn2)CC1 [S3i]', 1),
  ('O=S(=O)(c1ccc(-c2ccc3nccc(NCC4CCOCC4)c3c2)cc1)N1CCOCC1 [S3g]', -1),
  ('C[S+]([O-])CCNc1ncc(-c2ccc3c(Nc4cnccn4)ccnc3c2)cn1 (stereo not shown) [S2b]', -1),
  ('CN1CCC(Nc2ccnc3ccc(-c4ccc(S(=O)(=O)N5CCOCC5)cc4)cc23)CC1 [S3c]', 1),
  ('c1cnc(Nc2ccnc3cc(-c4cnc(N5CCOCC5)nc4)ccc23)cn1 [S2d]', -1),
  ('O=S(=O)(c1ccc(-c2ccc3nccc(N[C@@H]4CCCC[C@H]4O)c3c2)cc1)N1CCOCC1 (relative stereo) [S3d]', 1),
  ('O=S(=O)(c1ccc(-c2ccc3nccc(Nc4ccncn4)c3c2)cc1)N1CCOCC1 [S3a]', -1),
  ('O=S(=O)(c1ccc(-c2ccc3nccc(NC4CCOCC4)c3c2)cc1)N1CCOCC1 [S3f]', -1),
  ('CN1CCCN(c2ncc(-c3ccc4nccc(Nc5ccncn5)c4c3)cn2)CC1 [S3j]', 1);

---

# Test system: adult S. mansoni
# run-description: Phenotypic screen of adult S. mansoni worms, severity scores and descriptors
# Format: cell-based, Schistosoma mansoni
# conditions-used: adult S. mansoni, 10 µM, 1 h; phenotypic descriptors
measurement-kind: Descriptors (10 µM) 1 h

INSERT INTO results (smiles_code, measurement_kind, observed_result) VALUES
  ('CS(=O)(=O)N1CCN(c2ncc(-c3ccc4c(Nc5cnccn5)ccnc4c3)cn2)CC1', 'Descriptors (10 µM) 1 h', 'none'),
  ('O=S(=O)(c1ccc(-c2ccc3nccc(NCC4CCOCC4)c3c2)cc1)N1CCOCC1', 'Descriptors (10 µM) 1 h', 'none');

---

# run-description: Human plasma protein binding (equilibrium dialysis)
# Type: in vitro ADME
# conditions-used: pH 7.4, 37 °C, read-out: human PPB (plasma protein binding) (converted)
measurement-kind: fraction unbound at 10 µM

INSERT INTO measurements (smiles_code, measurement_kind, value_comparator, observed_result) VALUES
  ('Cc1cnc(Nc2ccnc3cc(-c4cnc(N5CCN(C)CC5)nc4)ccc23)cn1', 'fraction unbound at 10 µM', '=', 0.07),
  ('Fc1cccc(COc2ccc(Nc3ncnc4ccc(-c5cccc(N6CCOCC6)c5)cc34)cc2Cl)c1', 'fraction unbound at 10 µM', '<', 0.01),
  ('O=S(=O)(c1ccc(-c2ccc3nccc(Nc4ncccn4)c3c2)cc1)N1CCOCC1', 'fraction unbound at 10 µM', '=', 0.01);

---

# Tested on: adult S. mansoni
# run-description: Phenotypic screen of adult S. mansoni worms, severity scores and descriptors
# Format: cell-based, Schistosoma mansoni
# conditions-used: adult S. mansoni, 10 μM, 24 h; scale 0 (no activity) to 4 (maximal activity)
Reported Severity Scores (10 μM) 24 h values are given for each entry in this list.
measurement-kind: Severity Scores (10 μM) 24 h

INSERT INTO results (smiles_code, target_or_test_system, observed_result) VALUES
  ('CN1CCN(c2ncc(-c3ccc4c(NCCN5CCCC5)ccnc4c3)cn2)CC1', 'adult S. mansoni', 0),
  ('O=S(=O)(c1ccc(-c2ccc3nccc(NC4CCOCC4)c3c2)cc1)N1CCOCC1', 'adult S. mansoni', 1),
  ('COc1ccc(Nc2ccnc3cc(-c4cnc(N5CCCN(C)CC5)nc4)ccc23)cc1Cl', 'adult S. mansoni', 4),
  ('Cc1cnc(Nc2ccnc3cc(-c4cnc(N5CCN(C)CC5)nc4)ccc23)cn1', 'adult S. mansoni', 4),
  ('CN1CCCN(c2ncc(-c3ccc4c(Nc5ccncn5)ccnc4c3)cn2)CC1', 'adult S. mansoni', 0);
